Value source: ChEMBL document CHEMBL1914403

Test: AUC in plasma of rat at 10 mg/kg, po
Format: ADME, organism-based
Set-up: dose 10 mg/kg, route oral
QUANTITY_MEASURED: AUC (ng·h/mL)
One number for each entry, in ng·h/mL.

* COc1ccc2nc(C)c3c(C)nc(-c4c(C)nn(C)c4C)n3c2n1 | 4130
* COc1cc(OC)c2nc(C)c3c(C)nc(-c4cnccc4C)n3c2c1 | 8850
* COc1ccc2nc(C)c3c(C)nc(-c4cnccc4C)n3c2n1 | 747
* COc1cc(F)cc2c1nc(C)c1c(C)nc(-c3ccncc3C)n12 | 3640

Now, please, on to the next compound.
Can you share its AUC? I mean this compound: COc1cc(OC(F)F)cc2c1nc(C)c1c(C)nc(-c3cccnc3C)n12
12700

====

Assay: Oral bioavailability in rat at 0.1 mg/kg
Format: ADME, organism-based
Settings: in vivo
QUANTITY_MEASURED: bioavailability (%)
Give bare numbers, in %.

Look up bioavailability for this molecule: COc1cc(OC(F)F)cc2c1nc(C)c1c(C)nc(-c3cccnc3C)n12
83

====

Assay: Drug uptake in brain
Assay type: ADME, tissue-based
Assign Drug uptake to each entry below.

Known results for molecules:
- Cc1cnccc1-c1nc(C)c2c(C)nc3ccc(Cl)cc3n12: > 90%
- COc1ccc2nc(C)c3c(C)nc(-c4ccccc4C)n3c2n1: > 90%
- Cc1ccncc1-c1nc(C)c2c(C)nc3ccc(OC(F)(F)F)cc3n12: > 90%

Please report Drug uptake for every entry that follows.
1. COc1ccc2nc(C)c3c(C)nc(-c4sccc4C)n3c2n1
2. COc1ccc2nc(C)c3c(C)nc(-c4c(C)noc4C)n3c2n1
3. COc1ccc2nc(C)c3c(C)nc(-c4ccc(F)cc4Cl)n3c2n1

> 90%
> 90%
> 90%

====

Assay: AUC in brain of rat at 10 mg/kg, po
Assay type: ADME, organism-based
Parameters: dose 10 mg/kg, route oral
QUANTITY_MEASURED: AUC (ng·h/mL)
One number for each entry, in ng·h/mL.

Answer for every listed entry: what is its AUC? The entries follow.
1. COc1ccc2nc(C)c3c(C)nc(-c4c(C)nn(C)c4C)n3c2n1
2. COc1ccc2nc(C)c3c(C)nc(-c4cnccc4C)n3c2n1

1: 2940; 2: 866

For every listed record, write down its AUC.
1. COc1cc(OC(F)F)cc2c1nc(C)c1c(C)nc(-c3cccnc3C)n12
2. COc1cc(OC)c2nc(C)c3c(C)nc(-c4cnccc4C)n3c2c1
3. COc1cc(F)cc2c1nc(C)c1c(C)nc(-c3ccncc3C)n12

1: 4400; 2: 3280; 3: 2370

====

Test: Oral bioavailability in dog at 2 mg/kg
Type: ADME, organism-based, Canis lupus familiaris
Details: in vivo
QUANTITY_MEASURED: bioavailability (%)
Numbers only, in %.

Param item = COc1cc(OC)c2nc(C)c3c(C)nc(-c4cnccc4C)n3c2c1 ; retrieve measured bioavailability.
100

====

Experiment: Drug uptake in brain
Format: ADME, tissue-based
QUANTITY_MEASURED: Drug uptake

* COc1cc(F)cc2c1nc(C)c1c(C)nc(-c3cccnc3C)n12 | > 90%
* COc1ccc2nc(C)c3c(C)nc(-c4ccccc4OC(F)(F)F)n3c2n1 | > 90%
* Cc1cnccc1-c1nc(C)c2c(C)nc3ccc(OC(F)(F)F)cc3n12 | > 90%

Please report Drug uptake for every entry that follows.
1. COc1cc(OC)c2nc(C)c3c(C)nc(-c4cnccc4C)n3c2c1
2. COc1ccc2nc(C)c3c(C)nc(-c4cc(Cl)ccc4Cl)n3c2n1
3. COc1cc(OC)c2nc(C)c3c(C)nc(-c4ccncc4C)n3c2c1
4. COc1ccc2nc(C)c3c(C)nc(-c4ccccc4C(F)(F)F)n3c2n1
5. COc1ccc2nc(C)c3c(C(F)(F)F)nc(-c4ccccc4C)n3c2n1
6. COc1cc(F)c2nc(C)c3c(C)nc(-c4c(C)nn(C)c4C)n3c2c1
7. COc1ccc2nc(C)c3c(C)nc(-c4cncnc4)n3c2n1

1: > 90%; 2: > 90%; 3: > 90%; 4: > 90%; 5: > 90%; 6: > 90%; 7: > 90%

====

Experiment: Oral bioavailability in dog at 0.5 mg/kg
Format: ADME, organism-based, Canis lupus familiaris
Details: in vivo
QUANTITY_MEASURED: bioavailability (%)
Give bare numbers, in %.

State the recorded bioavailability for this entry: COc1cc(OC(F)F)cc2c1nc(C)c1c(C)nc(-c3cccnc3C)n12
84

====

Assay: Oral bioavailability in rat at 2 mg/kg
Format: ADME, organism-based
Conditions: in vivo
QUANTITY_MEASURED: bioavailability (%)
Give bare numbers, in %.

For COc1ccc2nc(C)c3c(C)nc(-c4c(C)nn(C)c4C)n3c2n1 , what is its reported bioavailability?
67
